- Test system: HT-1080 (ATCC, CCL-121) cells
- protocol_description: HT-1080 cell viability assay with ferroptosis inducer RSL3 (Cell Titer-Glo)
- Type: cell-based
- condition_parameters: Homo sapiens; HT-1080 cells treated with RSL3; 3-fold, 10-point dilution, 1.1 μM highest concentration; Table 2; read-out: EC50 (nM), ferroptosis inhibitory activity
parameter: EC50

Cc1c(Nc2ccc3c(c2)n(C)c(=O)n3C)ccc(N2CCC(C)CC2)c1C; 0.1 to 100 nM
CN(C)c1cccc(Nc2ccc3c(c2)n(C)c(=O)n3C)c1; 0.1 to 100 nM
CN1C(=O)COc2ccc(Nc3ccc(N4CCC(C(F)(F)F)CC4)cc3)cc21; 0.1 to 100 nM
COC1(C(F)(F)F)CCN(c2ccc(Nc3ccc4c(c3)OCC(=O)N4C)c(C)c2)CC1; 0.1 to 100 nM
CC1CN(c2ccc(Nc3ccc4c(c3)OCC(=O)N4)cc2)CCO1 (stereo not drawn); 0.1 to 100 nM

Could you now look at the following molecule, please?
Q) Which measured EC50 belongs to NCCc1cc(=O)oc2cc(Nc3ccc(N4CCC(C(F)(F)F)CC4)cc3)ccc12 , tested on HT-1080 (ATCC, CCL-121) cells?
A) 0.1 to 100 nM

====

- Tested on: HT-1080 (ATCC, CCL-121) cells
- protocol_description: HT-1080 cell viability assay with ferroptosis inducer RSL3 (Cell Titer-Glo)
- Format: cell-based
- condition_parameters: Homo sapiens; HT-1080 cells treated with RSL3; 3-fold, 10-point dilution, 1.1 μM highest concentration; Table 2; read-out: EC50 (nM), ferroptosis inhibitory activity
parameter: EC50

Some entries whose results are on file:
O=C1NCc2cc(Nc3ccc(N4CCC(C(F)(F)F)CC4)cc3)ccc21; 0.1 to 100 nM
CCN(CC)c1ccc(Nc2ccc3c(c2)OCC(=O)N3C)cc1; 0.1 to 100 nM

Q) Can you look up the measured EC50 of CC(C)N1Cc2cc(Nc3ccc(N4CCC(C(F)(F)F)CC4)cc3)ccc2C1=O for me?
A) 0.1 to 100 nM

====

- System: HT-1080 (ATCC, CCL-121) cells
- protocol_description: HT-1080 cell viability assay with ferroptosis inducer RSL3 (Cell Titer-Glo)
- Assay type: cell-based
- condition_parameters: Homo sapiens; HT-1080 cells treated with RSL3; 3-fold, 10-point dilution, 1.1 μM highest concentration; Table 2; read-out: EC50 (nM), ferroptosis inhibitory activity
parameter: EC50

Some entries whose results are on file:
COCCOCCN(C)c1ccc(Nc2ccc3c(c2)n(C)c(=O)n3C)cc1 [Compound 369]; 100 to 1000 nM
CN1C(=O)COc2cc(Nc3ccc(N4CCC(C(F)(F)F)CC4)cc3)cc(F)c21 [Compound 88]; 0.1 to 100 nM

Q) Can you look up the measured EC50 of Cc1cc(C)c(Nc2ccc3c(c2)CN(C)C3=O)cn1 [Compound 236] for me?
A) 0.1 to 100 nM

Q) Can you look up the measured EC50 of Cc1cc(Nc2ccc3c(c2)OCC(=O)N3C)cnc1N1CC(C)OC(C)C1 (centres unmarked) [Compound 143] for me?
A) 0.1 to 100 nM

Q) Can you look up the measured EC50 of Cn1c(=O)n(C)c2cc(Nc3ccc4c(c3)OCCO4)ccc21 [Compound 307] for me?
A) 100 to 1000 nM
